- System: Trypanosoma cruzi
- experimental_details: Trypanosoma cruzi phosphomannomutase and mannose-1-phosphate guanylyltransferase assay
- Assay type: functional
- Design: scale not given: direction of the effect not stated beside the values
- condition_description: 10 µM
Below, each entry is listed with its recorded Percent Effect.
// note: answer is a bare numeric in %

// solved cases for Percent Effect follow
>  <compound>
COCC(=O)N(C)Cc1cccc(Cl)c1

>  <Percent Effect, %>
4.19

$$$$
>  <compound>
CCOc1cccc(C(=O)NCCC(=O)Nc2ccncc2)c1

>  <Percent Effect, %>
-2.43

$$$$

Report Percent Effect, nothing else, for this compound: Cc1cc(NC(=O)CCN2CCCC2Cn2cncn2)no1 (centres undefined) -0.718

Give a short answer stating reported Percent Effect for Cc1nn(C)c(Cl)c1C1CCCN1C(=O)c1ccc2nncn2c1 (centres undefined) . -4.25

Note Percent Effect for the compound shown: `CC(C)(C)c1ncc2c(n1)CN(C(=O)c1ccncc1)C2` -3.57

Provide one value: measured Percent Effect of Cc1nc(C2CCCN(C(=O)Cn3ccccc3=O)C2)no1 (centres undefined) -0.564

Give the reported value of Percent Effect for this record: `O=C(Cc1c[nH]c2ccccc12)N1CCN(C(=O)c2ccoc2)CC1` 0.487
